# protein stability index values compiled below
B1: TSN (parent)
chain: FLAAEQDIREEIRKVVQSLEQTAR

Variants of: B1
Test: protein stability index of a GFP-peptide fusion (GPS, HEK-293T) (PSI 1-6); higher = more stable;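 further: lentivirally expressed fusions sorted by FACS into six bins by GFP to DsRed ratio, PSI derived from sequencing read proportions per bin multiplied by bin number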
Conditions: c terminus: a fixed tail appended
Number only, no unit.

>  <mutant label>
I12W

>  <protein stability index>
2.89

$$$$
>  <mutant label>
F1V

>  <protein stability index>
2.62

$$$$
>  <mutant label>
R24H

>  <protein stability index>
1.47

$$$$
>  <mutant label>
K14Y

>  <protein stability index>
2.3

$$$$
>  <mutant label>
A23P

>  <protein stability index>
2.15

$$$$
>  <mutant label>
F1D

>  <protein stability index>
2.49

$$$$
>  <mutant label>
D7Y

>  <protein stability index>
2.44

$$$$
>  <mutant label>
I8F

>  <protein stability index>
2.57

$$$$
>  <mutant label>
F1A

>  <protein stability index>
2.35

$$$$
>  <mutant label>
R13H

>  <protein stability index>
2.7

$$$$

With those in mind, consider the next variant.
### Prompt Reported protein stability index, variant Q17Y : ____
### Response 1.6
